STUDY SYSTEM: Stb4 (UniProt P50104)
Sequence (P50104 whole entry): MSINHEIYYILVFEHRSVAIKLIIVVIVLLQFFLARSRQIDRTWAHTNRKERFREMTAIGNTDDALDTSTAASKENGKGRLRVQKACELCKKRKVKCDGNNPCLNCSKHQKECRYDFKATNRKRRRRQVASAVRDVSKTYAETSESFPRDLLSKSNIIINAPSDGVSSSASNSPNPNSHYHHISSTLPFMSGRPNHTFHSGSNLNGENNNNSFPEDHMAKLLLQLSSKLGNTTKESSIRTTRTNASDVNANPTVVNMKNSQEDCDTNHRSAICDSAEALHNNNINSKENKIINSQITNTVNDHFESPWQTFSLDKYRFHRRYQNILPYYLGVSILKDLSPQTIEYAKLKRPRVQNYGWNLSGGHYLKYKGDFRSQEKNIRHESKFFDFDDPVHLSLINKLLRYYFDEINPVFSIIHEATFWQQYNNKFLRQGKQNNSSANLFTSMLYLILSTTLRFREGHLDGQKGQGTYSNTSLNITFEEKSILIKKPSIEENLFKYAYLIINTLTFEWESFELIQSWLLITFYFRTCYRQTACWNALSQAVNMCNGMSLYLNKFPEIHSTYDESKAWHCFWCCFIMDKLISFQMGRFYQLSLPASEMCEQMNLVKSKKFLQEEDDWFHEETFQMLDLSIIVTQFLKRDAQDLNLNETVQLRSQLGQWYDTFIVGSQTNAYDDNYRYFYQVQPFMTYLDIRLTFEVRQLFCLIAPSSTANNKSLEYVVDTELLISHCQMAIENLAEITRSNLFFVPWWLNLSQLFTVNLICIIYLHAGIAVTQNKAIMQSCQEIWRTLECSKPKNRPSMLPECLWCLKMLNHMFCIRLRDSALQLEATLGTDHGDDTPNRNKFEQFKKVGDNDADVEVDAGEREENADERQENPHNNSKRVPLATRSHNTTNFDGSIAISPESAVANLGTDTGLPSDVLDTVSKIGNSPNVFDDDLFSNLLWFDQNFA
TEST DETAILS: PBM E-score (8-mer binding enrichment) (E-score (-0.5 to 0.5)); higher = stronger / more preferred TF binding
EXPERIMENTAL PARAMETERS: protein concentration: 200 nM; construct: GST-DNA-binding domain
Whole data set: some 33,000 sequences, median “E-score (-0.5 to 0.5)” near -0.056, cut for the highest 2% near 0.38. This excerpt belongs to a sample that is enriched for the highest values.
MEASURE NAME: PBM E-score
Please reply with the value in numeric form only.

A selection of reference data follows.
ACATAGAG	-0.166
GAGCCGCA	0.0237
GGCCGAAA	0.319
CGGGTAAA	0.424
CGCACCAC	-0.0216

Give PBM E-score for CAGCCGCG tested on Stb4 (UniProt P50104).
0.151

Give PBM E-score for AGGTGCTC tested on Stb4 (UniProt P50104).
-0.148

Give PBM E-score for CAGCCGGG tested on Stb4 (UniProt P50104).
0.237

Give PBM E-score for TGCCGACA tested on Stb4 (UniProt P50104).
0.359

Give PBM E-score for CGGGTAAG tested on Stb4 (UniProt P50104).
0.336

Give PBM E-score for AGCCGAAA tested on Stb4 (UniProt P50104).
0.425

Give PBM E-score for TGGCCGAA tested on Stb4 (UniProt P50104).
0.251

Give PBM E-score for GGGGTAAC tested on Stb4 (UniProt P50104).
-0.122

Give PBM E-score for CAACTCAA tested on Stb4 (UniProt P50104).
-0.0984

====

STUDY SYSTEM: Stb4 (UniProt P50104)
TEST DETAILS: PBM E-score (8-mer binding enrichment) (E-score (-0.5 to 0.5)); higher = stronger / more preferred TF binding
EXPERIMENTAL PARAMETERS: protein concentration: 200 nM; construct: GST-DNA-binding domain
The full ranking holds about 33,000 sequences; the median of “E-score (-0.5 to 0.5)” is about -0.056, and the highest 2% start at about 0.38. This excerpt belongs to a sample that is enriched for the highest values.
MEASURE NAME: PBM E-score
Please reply with the value in numeric form only.

GCAACGAC	0.0391
AAGCCGAT	0.299
GTCCTGAA	-0.197

Report measured PBM E-score; entry is AAAAGATT
-0.0765

Report measured PBM E-score; entry is CCGAGGAC
0.371

====

STUDY SYSTEM: Stb4 (UniProt P50104)
TEST DETAILS: PBM E-score (8-mer binding enrichment) (E-score (-0.5 to 0.5)); higher = stronger / more preferred TF binding
EXPERIMENTAL PARAMETERS: protein concentration: 200 nM; construct: GST-DNA-binding domain
In all, about 33,000 sequences were measured (“E-score (-0.5 to 0.5)”: median about -0.056, highest 2% from about 0.38 on). Many of the other results were omitted from the sample, so the highest values are more common in it than they were.
PBM E-score reference
Please reply with the value in numeric form only.

A selection of reference data follows.
CATCCCGC	0.122
CCTCCGGA	0.307
AATCCGGG	0.306
CATCCGGA	0.406

Give PBM E-score for TATCCCCA tested on Stb4 (UniProt P50104).
-0.185

Give PBM E-score for CCGGGATA tested on Stb4 (UniProt P50104).
0.292

Give PBM E-score for ATATCCGA tested on Stb4 (UniProt P50104).
0.482

Give PBM E-score for TCAGAAGA tested on Stb4 (UniProt P50104).
-0.217

Give PBM E-score for ACCGGATG tested on Stb4 (UniProt P50104).
0.385

Give PBM E-score for CATGCCAA tested on Stb4 (UniProt P50104).
-0.257

Give PBM E-score for ATATCCAA tested on Stb4 (UniProt P50104).
0.0444
